test: Inhibition of body weight gain in Yoshida sarcoma-bearing rats (Pharmacological Test Example 1); parameters: species or system rat (male Donryu/CRJ strain); settings: rat, in vivo, iv, iv: intravenous injection; read-out: BWC50 (dose of 50% inhibition of body weight gain)
test.readout: TD50 (mg/kg)
Write the number in mg/kg without appending the unit.

The measured TD50 associated with O=c1[nH]c(=O)n([C@H]2C[C@H](O)[C@@H](CO)O2)cc1F reads 60

----------
assay: Inhibition of body weight gain in Yoshida sarcoma-bearing rats (Pharmacological Test Example 1); design: species or system rat (male Donryu/CRJ strain); settings: rat, in vivo, po
test.readout: TD50 (mg/kg)
API: value field is a number in mg/kg; no unit string.

Use these answered entries as a reference point.
* CCCCC(=O)OC[C@H]1O[C@@H](n2cc(F)c(OCc3ccc(F)cc3)nc2=O)C[C@@H]1OC(=O)CCCC | 40
* O=c1[nH]c(=O)n([C@H]2C[C@H](OCc3ccc(Cl)cc3F)[C@@H](CO)O2)cc1F | 8.5
* CCCOc1nc(=O)n([C@H]2C[C@H](OCc3ccc(F)cc3F)[C@@H](CO)O2)cc1F | 18
* CCCOc1nc(=O)n([C@H]2C[C@H](OCc3ccc(Cl)cc3Cl)[C@@H](CO)O2)cc1F | 16
* CCCOc1nc(=O)n([C@H]2C[C@H](O)[C@@H](CO)O2)cc1F | 37

API: the following record is the query input.
# TD50 of CCCOc1nc(=O)n([C@H]2C[C@H](OCc3ccc(Cl)cc3F)[C@@H](CO)O2)cc1F = 14
